# Protocol Summary: PET hydrolysis product formed (TPA+MHET+BHET, UV-Vis) per mg enzyme (mmol/mg enzyme); higher = more PET depolymerisation activity; extreme values may be limits of the assay
# Condition Set: PET substrate: cryPow; 60 °C; pH 7.5; 2 h
Readout Name: PET hydrolysis product formed
No unit in the answer, only the number.

Prompt line: Please report the recorded PET hydrolysis product formed for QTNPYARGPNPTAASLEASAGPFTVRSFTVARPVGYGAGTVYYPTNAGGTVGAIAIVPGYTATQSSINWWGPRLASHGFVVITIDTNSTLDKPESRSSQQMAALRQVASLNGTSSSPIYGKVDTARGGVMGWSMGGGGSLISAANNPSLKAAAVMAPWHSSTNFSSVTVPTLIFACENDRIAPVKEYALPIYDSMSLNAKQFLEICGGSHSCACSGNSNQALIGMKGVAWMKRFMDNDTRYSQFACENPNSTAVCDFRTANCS [HotPETase] .
Response line: 0.131

Prompt line: Similarly, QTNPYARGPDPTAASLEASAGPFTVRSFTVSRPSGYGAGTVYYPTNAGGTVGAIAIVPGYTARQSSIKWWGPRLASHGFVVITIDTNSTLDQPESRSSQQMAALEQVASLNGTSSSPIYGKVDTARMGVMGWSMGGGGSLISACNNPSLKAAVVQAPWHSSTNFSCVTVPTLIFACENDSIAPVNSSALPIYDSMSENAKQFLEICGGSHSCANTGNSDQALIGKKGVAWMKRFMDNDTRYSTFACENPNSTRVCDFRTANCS [Z1-PETase] ?
Response line: 0.135

Prompt line: Similarly, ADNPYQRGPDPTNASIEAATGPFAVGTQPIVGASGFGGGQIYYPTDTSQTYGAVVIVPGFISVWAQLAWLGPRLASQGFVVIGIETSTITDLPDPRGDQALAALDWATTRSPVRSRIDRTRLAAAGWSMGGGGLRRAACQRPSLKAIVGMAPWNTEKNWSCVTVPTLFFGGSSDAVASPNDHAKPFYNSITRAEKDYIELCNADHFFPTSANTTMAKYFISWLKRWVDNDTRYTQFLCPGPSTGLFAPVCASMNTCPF [CaPETaseM9] ?
Response line: 0.0693

Prompt line: Similarly, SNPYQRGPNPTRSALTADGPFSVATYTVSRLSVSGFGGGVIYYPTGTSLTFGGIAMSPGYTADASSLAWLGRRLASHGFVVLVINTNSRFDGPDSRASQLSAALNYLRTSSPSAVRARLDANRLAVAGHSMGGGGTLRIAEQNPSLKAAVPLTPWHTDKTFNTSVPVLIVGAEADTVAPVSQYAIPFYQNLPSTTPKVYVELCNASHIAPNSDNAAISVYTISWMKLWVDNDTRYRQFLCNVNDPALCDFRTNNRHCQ [LCC-A2] ?
Response line: 0.127

Prompt line: Similarly, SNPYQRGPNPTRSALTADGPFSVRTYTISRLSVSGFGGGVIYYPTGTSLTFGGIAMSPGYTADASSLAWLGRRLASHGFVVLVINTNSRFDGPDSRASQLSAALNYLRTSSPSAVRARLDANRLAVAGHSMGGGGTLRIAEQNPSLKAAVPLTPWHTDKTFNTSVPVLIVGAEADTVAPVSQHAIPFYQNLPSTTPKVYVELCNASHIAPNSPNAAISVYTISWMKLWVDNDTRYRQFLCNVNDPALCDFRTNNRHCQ [LCC-ICCG RIP] ?
Response line: 0.0711

----------
# Protocol Summary: PET hydrolysis product formed (TPA+MHET+BHET, UV-Vis) per mg enzyme (mmol/mg enzyme); higher = more PET depolymerisation activity; extreme values may be limits of the assay
# Condition Set: PET substrate: cryPow; 60 °C; pH 5.5; 24 h
Readout Name: PET hydrolysis product formed
No unit in the answer, only the number.

Recorded results for 2 sequences are shown here.
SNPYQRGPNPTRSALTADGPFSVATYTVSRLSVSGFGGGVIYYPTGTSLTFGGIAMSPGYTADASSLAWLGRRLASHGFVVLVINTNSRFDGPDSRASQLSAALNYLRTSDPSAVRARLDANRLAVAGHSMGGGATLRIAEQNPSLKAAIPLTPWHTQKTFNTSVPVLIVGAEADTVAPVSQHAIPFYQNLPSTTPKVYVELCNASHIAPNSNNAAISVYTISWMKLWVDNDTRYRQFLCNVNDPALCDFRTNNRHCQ [LCC-ICCG DAQI]	0.0632
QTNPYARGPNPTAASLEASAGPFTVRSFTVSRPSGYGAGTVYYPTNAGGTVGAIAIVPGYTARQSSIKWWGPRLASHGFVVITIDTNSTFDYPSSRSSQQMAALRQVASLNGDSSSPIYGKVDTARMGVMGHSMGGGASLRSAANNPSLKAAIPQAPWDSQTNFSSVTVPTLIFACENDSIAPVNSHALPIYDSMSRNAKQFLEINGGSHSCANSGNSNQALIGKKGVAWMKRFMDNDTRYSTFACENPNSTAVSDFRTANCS [DuraPETase]	0

Prompt line: Please report the recorded PET hydrolysis product formed for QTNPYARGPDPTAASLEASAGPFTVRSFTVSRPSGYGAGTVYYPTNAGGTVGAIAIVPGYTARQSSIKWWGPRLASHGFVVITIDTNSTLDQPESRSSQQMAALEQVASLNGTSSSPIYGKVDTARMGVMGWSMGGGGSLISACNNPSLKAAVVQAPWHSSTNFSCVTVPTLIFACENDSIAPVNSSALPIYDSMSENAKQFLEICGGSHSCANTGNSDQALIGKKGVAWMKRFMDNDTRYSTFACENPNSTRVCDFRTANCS [Z1-PETase] .
Response line: 0.0183

----------
# Protocol Summary: PET hydrolysis product formed (TPA+MHET+BHET, UV-Vis) per mg enzyme (mmol/mg enzyme); higher = more PET depolymerisation activity; extreme values may be limits of the assay
# Condition Set: PET substrate: aFilm; 60 °C; pH 4.5; 24 h
Readout Name: PET hydrolysis product formed
No unit in the answer, only the number.

Prompt line: Please report the recorded PET hydrolysis product formed for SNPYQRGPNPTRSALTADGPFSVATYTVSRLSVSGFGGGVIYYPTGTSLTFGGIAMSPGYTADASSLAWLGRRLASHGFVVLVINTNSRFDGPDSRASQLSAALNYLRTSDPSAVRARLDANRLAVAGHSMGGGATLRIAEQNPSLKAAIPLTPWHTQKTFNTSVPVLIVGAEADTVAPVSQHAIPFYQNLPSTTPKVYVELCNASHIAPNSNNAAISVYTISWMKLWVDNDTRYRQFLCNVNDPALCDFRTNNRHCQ [LCC-ICCG DAQI] .
Response line: 0.0166

----------
# Protocol Summary: terephthalic acid (TPA) released, HPLC; higher = more TPA released; extreme values may be limits of the assay
# Condition Set: PET substrate: cryPow; 70 °C; pH 7.5; 24 h
Reported terephthalic acid values are given for each entry in this list.
The answer is to be given in mM; state only the numeric part.

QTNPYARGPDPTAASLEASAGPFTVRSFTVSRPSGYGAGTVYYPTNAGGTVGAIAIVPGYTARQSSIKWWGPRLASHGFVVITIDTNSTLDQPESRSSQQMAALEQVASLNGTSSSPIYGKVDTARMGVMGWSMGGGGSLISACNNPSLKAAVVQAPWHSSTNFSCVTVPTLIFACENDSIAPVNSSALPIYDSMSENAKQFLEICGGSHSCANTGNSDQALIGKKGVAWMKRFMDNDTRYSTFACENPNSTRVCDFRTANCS [Z1-PETase]	0.17
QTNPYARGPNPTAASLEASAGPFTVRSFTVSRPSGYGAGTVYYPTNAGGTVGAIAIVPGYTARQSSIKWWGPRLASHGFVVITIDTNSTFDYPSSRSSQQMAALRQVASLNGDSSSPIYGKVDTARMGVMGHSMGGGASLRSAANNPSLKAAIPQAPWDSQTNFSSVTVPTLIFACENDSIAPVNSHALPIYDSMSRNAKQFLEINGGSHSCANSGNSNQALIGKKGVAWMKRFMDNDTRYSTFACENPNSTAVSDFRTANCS [DuraPETase]	0.12

Here is another sequence to look at.
Prompt line: Please report the recorded terephthalic acid for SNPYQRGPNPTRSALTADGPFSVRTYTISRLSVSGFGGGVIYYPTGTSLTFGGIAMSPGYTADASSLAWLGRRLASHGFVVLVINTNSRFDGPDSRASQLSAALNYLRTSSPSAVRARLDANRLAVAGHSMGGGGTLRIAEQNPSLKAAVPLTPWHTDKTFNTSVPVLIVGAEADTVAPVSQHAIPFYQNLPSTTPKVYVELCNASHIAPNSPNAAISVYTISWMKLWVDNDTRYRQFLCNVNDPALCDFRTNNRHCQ [LCC-ICCG RIP] .
Response line: 0.322

----------
Reported PET hydrolysis product formed values are given for each entry in this list.
# Protocol Summary: PET hydrolysis product formed (TPA+MHET+BHET, UV-Vis) per mg enzyme (mmol/mg enzyme); higher = more PET depolymerisation activity; extreme values may be limits of the assay
# Condition Set: PET substrate: cryPow; 70 °C; pH 9.5; 24 h
No unit in the answer, only the number.

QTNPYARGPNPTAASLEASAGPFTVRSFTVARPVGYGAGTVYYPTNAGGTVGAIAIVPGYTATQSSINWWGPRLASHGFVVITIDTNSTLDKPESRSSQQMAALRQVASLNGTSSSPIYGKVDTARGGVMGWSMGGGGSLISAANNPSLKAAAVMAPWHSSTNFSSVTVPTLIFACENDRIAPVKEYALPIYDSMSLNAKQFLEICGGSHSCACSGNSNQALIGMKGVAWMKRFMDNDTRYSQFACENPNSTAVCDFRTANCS [HotPETase]	0.0809

Prompt line: Please report the recorded PET hydrolysis product formed for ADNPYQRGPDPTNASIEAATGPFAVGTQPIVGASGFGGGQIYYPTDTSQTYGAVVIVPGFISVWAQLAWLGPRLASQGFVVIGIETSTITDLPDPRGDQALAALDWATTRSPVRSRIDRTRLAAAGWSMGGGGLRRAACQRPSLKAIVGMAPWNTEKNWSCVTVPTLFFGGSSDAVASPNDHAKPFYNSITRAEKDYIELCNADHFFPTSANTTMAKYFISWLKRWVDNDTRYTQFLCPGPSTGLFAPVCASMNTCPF [CaPETaseM9] .
Response line: 0.0148
